Here, molecules appear alongside IC50 reported for Aromatase (Homo sapiens) in the literature.
Measured property: IC50 (nM)

Molecule: COc1ccc2c(c1)C(C)=C(Cc1ccncc1)CC2
Measure unit: nM
IC50: 630

I. CC1=C(Cc2ccncc2)CCc2ccc(O)cc21
II. CCC1=C(Cc2ccncc2)CCc2cc(OC)ccc21
III. CC(C)c1nccn1-c1nc(N(C)C)nc(-n2ccnc2)n1
IV. CCC1(c2ccnc(C(C)(C)C)c2)CCC(=O)NC1=O (centres unmarked)
List the 4 entries from lowest IC50 to highest IC50 value. Provide your answer as the labels ordered per the instruction.
II, I, III, IV

###

Here, compounds appear alongside IC50 reported for Aromatase (Homo sapiens, UniProt P11511) in the literature.
Measured property: IC50 (µM)

Compound: CCC1=C(Cc2ccncc2)CCc2c(OC)cccc21
Measure unit: µM
IC50: 0.95

1. COc1ccc(-c2oc3c(CC=C(C)C)c(O[C@@H]4O[C@H](CO)[C@@H](O)[C@H](O)[C@H]4O)cc(O)c3c(=O)c2O[C@@H]2O[C@@H](C)[C@H](O)[C@@H](O)[C@H]2O)cc1
2. C[C@]12CC[C@H]3[C@@H](C=CC4=CC(=O)C=C[C@@]43C)[C@@H]1CCOC2
Lowest IC50? choose 1 or 2 Identify your selection by its label.
1

###

pIC50: −log10 of the molar value.
Here, molecules appear alongside pIC50 reported for UniProtKB P11511 in the literature.
Measured property: pIC50

Molecule: CCCCN(CCCC)c1nc(-n2ccnc2)nc(-n2ccnc2)n1
Tested target: UniProtKB P11511
pIC50: 7.85

P. CCN(CC)c1nc(-n2ccnc2)nc(-n2ccnc2)n1
Q. CC1CC(C)CN(c2nc(N3CCOCC3)nc(-n3ccnc3)n2)C1 (centres unmarked)
R. N#Cc1ccc(C(C(O)CCc2ccc(F)cc2)n2ccnc2)cc1 (single isomer, unassigned)
S. COc1ccc2c(c1)CCC(Cc1ccncc1)=C2C
Sort these molecules on pIC50 so the largest reading comes first. Provide your answer as the labels ordered per the instruction.
Q, P, R, S
(Q: 7.96, P: 7.22, R: 6.74, S: 6.19)

###

Here, compounds appear alongside IC50 reported for UniProt:P11511 in the literature.
Measured property: IC50 (µM)

Compound: CC1CN(c2nc(N3CCOCC3)nc(-n3ccnc3)n2)CC(C)O1 (stereo not drawn)
IC50 (µM): 0.031

Compound: c1cn(-c2nc(N3CCOCC3)nc(N3CCC4(CC3)OCCO4)n2)cn1
IC50 (µM): 0.024

Compound: CCOc1ccc2c(c1)C(C)=C(Cc1c[nH]cn1)CC2
IC50 (µM): 1.2

Compound: COc1ccc2c(c1)C=C(Cc1ccncc1)CC2
IC50 (µM): 1.7

Compound: COc1cccc2c1CCC(Cc1ccncc1)=C2
IC50 (µM): 0.95

1. N#Cc1ccc(C(C(O)CCc2ccc(F)cc2)n2cncn2)cc1 (single isomer, unassigned)
2. CC(CC(=O)C12CC3CC(CC(C3)C1)C2)c1cccnc1 (racemic)
3. CC(Cc1cccnc1)C(=O)C12CC3CC(CC(C3)C1)C2 (racemic)
4. c1cn(-c2nc(N3CCOCC3)nc(-n3ccnc3)n2)cn1
List the 4 entries from lowest IC50 to highest IC50 value. Provide your answer as the labels ordered per the instruction.
4, 1, 2, 3
(4: 0.021 µM, 1: 0.95 µM, 2: 1.4 µM, 3: 2.7 µM)
